Test: refractive index (Na D-line) (dimensionless)
Settings: 318.15 K; 101.33 kPa; Liquid; Standard Abbe refractometry
Numbers after ± are expanded uncertainties.
ENDPOINT NAME: refractive index

Some solved cases for reference:
- COMPOUND: "OCCCO"
  refractive index: "1.43243 ± 0.00051"
- COMPOUND: "CC(O)CO (stereo not given)"
  refractive index: "1.4242 ± 0.00037"
- COMPOUND: "COCCOCCOCCOCCOC"
  refractive index: "1.42206 ± 0.00037"

Task: Query (compound): C1CCOC1 [tetrahydrofuran] ; field requested: refractive index
Output: 1.3938 ± 0.00037

Task: # repeat for CCOC(=O)C(C)O (racemic) [DL-ethyl lactate]
Output: 1.40136 ± 0.00051

---

molecules and their reported mass density
Settings: 298.15 K; 101 kPa; Liquid; Vibrating tube method
Just the number in kg/m3, nothing appended.

Some solved cases for reference:
- MOLECULE: "COCCOCCOCCOCCOC"
  UNIT SYMBOL: "kg/m3"
  mass density: 1007.42
- MOLECULE: "CC(O)CO (stereo not given)"
  UNIT SYMBOL: "kg/m3"
  mass density: 1032.59
- MOLECULE: "C1CCOC1 [tetrahydrofuran]"
  UNIT SYMBOL: "kg/m3"
  mass density: 882.403
- MOLECULE: "OCCCO"
  UNIT SYMBOL: "kg/m3"
  mass density: 1049.69

Task: Query (molecule): CCOC(=O)C(C)O (racemic) [DL-ethyl lactate] ; field requested: mass density
Output: 1028.39

---

Conditions: 293.15 K; 101 kPa; Liquid; Concentric cylinders viscometry
Decide by viscosity: equal to or exceeding 4 mPa·s means Satisfied, less means Not satisfied.

- COMPOUND: "CC(O)CO (stereo not given)"
  CATEGORY LABEL: "Satisfied"

Task: Hello, I need to know if C1CCOC1 [tetrahydrofuran] has measured viscosity not below 4 mPa·s. Thanks!
Output: Not satisfied

Task: # repeat for OCCCO
Output: Satisfied

Task: # repeat for CCOC(=O)C(C)O (racemic) [DL-ethyl lactate]
Output: Not satisfied

Task: # repeat for COCCOCCOCCOCCOC
Output: Not satisfied

---

compounds and their reported mass density
Conditions: 293.15 K; 101 kPa; Liquid; Vibrating tube method
Numbers after ± are expanded uncertainties.

Some solved cases for reference:
- COMPOUND: "OCCCO"
  mass density: "1052.8 ± 0.95 kg/m3"
- COMPOUND: "COCCOCCOCCOCCOC"
  mass density: "1012.06 ± 0.24 kg/m3"
- COMPOUND: "C1CCOC1 [tetrahydrofuran]"
  mass density: "887.865 ± 0.23 kg/m3"
- COMPOUND: "CC(O)CO (stereo not given)"
  mass density: "1036.25 ± 0.26 kg/m3"

// next item, mass density requested
Task: Query (compound): CCOC(=O)C(C)O (racemic) [DL-ethyl lactate] ; field requested: mass density
Output: 1033.84 ± 0.91 kg/m3

---

Settings: 298.15 K; 101 kPa; Liquid; Concentric cylinders viscometry
ENDPOINT NAME: viscosity (mPa·s)
Just the number in mPa·s, nothing appended.

Task: Query (molecule): OCCCO ; field requested: viscosity
Output: 41.51

Task: # repeat for C1CCOC1 [tetrahydrofuran]
Output: 0.4847

Task: # repeat for COCCOCCOCCOCCOC
Output: 3.348

Task: # repeat for CC(O)CO (stereo not given)
Output: 44.03

Task: # repeat for CCOC(=O)C(C)O (racemic) [DL-ethyl lactate]
Output: 2.39

---

molecules and their reported refractive index
Assay: refractive index (Na D-line) (dimensionless)
Conditions: 288.15 K; 101.33 kPa; Liquid; Standard Abbe refractometry
Lab note: jot down the number only; don't add units.

Some solved cases for reference:
- MOLECULE: "CC(O)CO (stereo not given)"
  ENDPOINT VALUE: 1.43437
- MOLECULE: "OCCCO"
  ENDPOINT VALUE: 1.44091
- MOLECULE: "COCCOCCOCCOCCOC"
  ENDPOINT VALUE: 1.43553

Task: Query (molecule): CCOC(=O)C(C)O (racemic) [DL-ethyl lactate] ; field requested: refractive index
Output: 1.41537

Task: # repeat for C1CCOC1 [tetrahydrofuran]
Output: 1.41005

---

Conditions: 323.15 K; 101 kPa; Liquid; Concentric cylinders viscometry
molecules and their reported viscosity
Just the number in mPa·s, nothing appended.

Some solved cases for reference:
- MOLECULE: "C1CCOC1 [tetrahydrofuran]"
  ENDPOINT NAME: "viscosity"
  ENDPOINT VALUE: 0.3636
- MOLECULE: "CC(O)CO (stereo not given)"
  ENDPOINT NAME: "viscosity"
  ENDPOINT VALUE: 12.64

Task: Query (molecule): COCCOCCOCCOCCOC ; field requested: viscosity
Output: 2.003

Task: # repeat for OCCCO
Output: 15.2

Task: # repeat for CCOC(=O)C(C)O (racemic) [DL-ethyl lactate]
Output: 1.349

---

Details: 323.15 K; 101 kPa; Liquid; Vibrating tube method
Numbers after ± are expanded uncertainties.
compounds and their reported mass density
Respond with a number, then the unit of measure.

- COMPOUND: "OCCCO [propan-1,3-diol]"
  mass density: "1033.91 ± 0.91 kg/m3"
- COMPOUND: "COCCOCCOCCOCCOC [2,5,8,11,14-pentaoxapentadecane]"
  mass density: "984.262 ± 0.23 kg/m3"

Task: Query (compound): C1CCOC1 [tetrahydrofuran] ; field requested: mass density
Output: 854.558 ± 0.23 kg/m3

Task: # repeat for CCOC(=O)C(C)O (racemic) [DL-ethyl lactate]
Output: 1000.79 ± 0.84 kg/m3

Task: # repeat for CC(O)CO (stereo not given) [1,2-propanediol]
Output: 1013.66 ± 0.24 kg/m3

---

molecules and their reported refractive index
Assay: refractive index (Na D-line) (dimensionless)
Details: 293.15 K; 101.33 kPa; Liquid; Standard Abbe refractometry
Lab note: jot down the number only; don't add units.

Some solved cases for reference:
- MOLECULE: "OCCCO"
  ENDPOINT VALUE: 1.43949
- MOLECULE: "CC(O)CO (stereo not given)"
  ENDPOINT VALUE: 1.4327
- MOLECULE: "COCCOCCOCCOCCOC"
  ENDPOINT VALUE: 1.43338
- MOLECULE: "C1CCOC1 [tetrahydrofuran]"
  ENDPOINT VALUE: 1.40737

// next item, refractive index requested
Task: Query (molecule): CCOC(=O)C(C)O (racemic) [DL-ethyl lactate] ; field requested: refractive index
Output: 1.41307

---

Conditions: 303.15 K; 101 kPa; Liquid; Concentric cylinders viscometry
molecules and their reported viscosity
Just the number in mPa·s, nothing appended.

Some solved cases for reference:
- MOLECULE: "CC(O)CO (stereo not given)"
  viscosity (mPa·s): 33.16
- MOLECULE: "CCOC(=O)C(C)O (racemic) [DL-ethyl lactate]"
  viscosity (mPa·s): 2.097
- MOLECULE: "C1CCOC1 [tetrahydrofuran]"
  viscosity (mPa·s): 0.464
- MOLECULE: "OCCCO"
  viscosity (mPa·s): 33.2

// next item, viscosity requested
Task: Query (molecule): COCCOCCOCCOCCOC ; field requested: viscosity
Output: 2.983

---

Settings: 288.15 K; 101 kPa; Liquid; Concentric cylinders viscometry
molecules and their reported log10(viscosity)
Scale type: logarithmic (base 10). Underlying viscosity unit: mPa·s.

- MOLECULE: "OCCCO"
  ENDPOINT VALUE: 1.83

// next item, log10(viscosity) requested
Task: Query (molecule): CC(O)CO (stereo not given) ; field requested: log10(viscosity)
Output: 1.92

---

compounds and their reported mass density
Settings: 303.15 K; 101 kPa; Liquid; Vibrating tube method
Just the number in kg/m3, nothing appended.

Some solved cases for reference:
- COMPOUND: "C1CCOC1 [tetrahydrofuran]"
  UNIT SYMBOL: "kg/m3"
  ENDPOINT VALUE: 876.911
- COMPOUND: "CCOC(=O)C(C)O (racemic) [DL-ethyl lactate]"
  UNIT SYMBOL: "kg/m3"
  ENDPOINT VALUE: 1022.92
- COMPOUND: "COCCOCCOCCOCCOC [2,5,8,11,14-pentaoxapentadecane]"
  UNIT SYMBOL: "kg/m3"
  ENDPOINT VALUE: 1002.79
- COMPOUND: "CC(O)CO (stereo not given) [1,2-propanediol]"
  UNIT SYMBOL: "kg/m3"
  ENDPOINT VALUE: 1028.88

Task: Query (compound): OCCCO [propan-1,3-diol] ; field requested: mass density
Output: 1046.57
